B1: MBP–FDc(T282E), N-terminal MBP-fused, truncated FD (amino acids 215–285) [Arabidopsis thaliana] / GRF7 (14-3-3ν), recombinant [Arabidopsis thaliana] (parent)
chain 1: NRRHKRMIKNRESAARSRARKQAYTNELELEVAHLQAENARLKRQQDQLKMAAAIQQPKKNTLQRSSEAPF
chain 2: MSSSREENVYLAKLAEQAERYEEMVEFMEKVAKTVDTDELTVEERNLLSVAYKNVIGARRASWRIISSIEQKEESRGNDDHVSIIKDYRGKIETELSKICDGILNLLDSHLVPTASLAESKVFYLKMKGDYHRYLAEFKTGAERKEAAESTLVAYKSAQDIALADLAPTHPIRLGLALNFSVFYYEILNSPDRACSLAKQAFDEAISELDTLGEESYKDSTLIMQLLRDNLTLWNSDINDEAGGDEIKEASKHEPEEGKPAETGQ

variants of: B1; assay: SEC-MALS; settings: with GRF7 (14-3-3ν), free GRF7 peak marked 60 kD
Catalogue of screen value readings, one per entry.

Use the examples below as a reference point.
> print(dat)
        mutant.label  result
1       chain 1 L35A  116 kD
2       chain 1 L49A  168 kD
3  chain 1 Y24A E29A  117 kD

Q: // Input: chain 1 L42A . Output its screen value only.
Result: 117 kD
